tested on: HT29 cells; assay: Cellular uptake of Pt by ICP-MS; format: cell-based; conditions: HT29, 3 µM, 0 h
ASSAY_METRIC: Intracellular Concentration (nmol/10^6 cells)
State just the number; it will be interpreted in nmol/10^6 cells.

q: # query: Intracellular Concentration of entry Cc1cc2cccnc2c2ncccc12.N[C@H]1CCCC[C@@H]1N.O=[N+]([O-])[O-].O=[N+]([O-])[O-].[OH][Pt+2][OH]
a: 0.15

q: Next up: N[C@H]1CCCC[C@@H]1N.O=[N+]([O-])[O-].O=[N+]([O-])[O-].[OH-].[OH-].[Pt+4].c1cnc2c(c1)ccc1cccnc12
a: 0.10

q: Next up: Cc1c(C)c2cccnc2c2ncccc12.N[C@H]1CCCC[C@@H]1N.O=[N+]([O-])[O-].O=[N+]([O-])[O-].[OH][Pt+2][OH]
a: 0.14

q: Next up: Cc1cc2cccnc2c2ncccc12.N[C@H]1CCCC[C@@H]1N.O=[N+]([O-])[O-].O=[N+]([O-])[O-].[Pt+2]
a: 0.28

q: Next up: Cc1c(C)c2cccnc2c2ncccc12.N[C@H]1CCCC[C@@H]1N.O=[N+]([O-])[O-].O=[N+]([O-])[O-].[Pt+2]
a: 0.45

q: Next up: N[C@H]1CCCC[C@@H]1N.O=[N+]([O-])[O-].O=[N+]([O-])[O-].[Pt+2].c1cnc2c(c1)ccc1cccnc12
a: 0.61

Others:
q: # query: Intracellular Concentration of entry N.N.[Cl][Pt][Cl] [Cisplatin, cisplatin]
a: 0.36
